- System name: DNA-PK (Homo sapiens (Human))
- Assay comment: DNA-PK Enzyme-Linked Immunosorbent Assay (phosphorylation of GST-p53 (1-101) peptide)
- Format: biochemical
- Run parameters: ELISA, ATP 20 μM
Counter-ions that a name gives are not always drawn.
Property name: IC50

Consider the following illustrative entries.
- CN(C)CCCOc1ncc(-c2ccc3ncc4c(c3c2)C2(CCC2)C(=O)N4C)cc1NS(=O)(=O)c1cscn1 [Example 160, hydrochloride]: < 0.5 nM
- CNC1CN(c2ncc(-c3cc4c5c(cnc4cc3F)N(C)C(=O)C53CCC3)cc2NS(C)(=O)=O)C1 [Example 330, formate]: 0.5 to 1 nM
- CN1C(=O)C2(CCC2)c2c1cnc1ccc(-c3cnc(OCCCN4CCOCC4)c(NS(=O)(=O)N(C)C)c3)cc21: 0.5 to 1 nM
- CN(C)CCCOc1ccc(-c2ccc3ncc4c(c3c2)C2(CC2)C(=O)N4C)cc1NS(=O)(=O)c1cccc(Cl)c1: 1 to 100 nM
- COc1cc2ncc3c(c2cc1-c1cnc(OCCCN(C)C)c(NS(=O)(=O)c2ccccc2)c1)C1(CC1)C(=O)N3C: 1 to 100 nM

Simply: CN1C(=O)C2(CCC2)c2c1cnc1ccc(-c3cnc(OCCCN4CCOCC4)c(NS(=O)(=O)C4CC4)c3)cc21 , DNA-PK (Homo sapiens (Human)), IC50 = 1 to 100 nM

Reported IC50 (DNA-PK (Homo sapiens (Human))) for entry CCS(=O)(=O)Nc1cc(-c2ccc3ncc4c(c3c2)C2(CC2)C(=O)N4C)cnc1OCCCN(C)C [Example 61, hydrochloride] is 1 to 100 nM

----------
- System name: UniProt P78527
- Assay comment: DNA-PK Enzyme-Linked Immunosorbent Assay (phosphorylation of GST-p53 (1-101) peptide)
- Format: biochemical
- Run parameters: ELISA, ATP 20 μM
pIC50: −log10 of the molar value. Counter-ions that a name gives are not always drawn.
Property name: pIC50

• CN1C(=O)C2(CCC2)c2c1cnc1cc(F)c(-c3cnc(N4CC(N(C)C)C4)c(NS(=O)(=O)C4CC4)c3)cc21 [Example 319, hydrochloride] = 7.00 to 9.00
• CN(C)CCCOc1ncc(-c2ccc3ncc4c(c3c2)C2(CCC2)C(=O)N4C)cc1NS(=O)(=O)CC#N [Example 273] = > 9.30
• CN(C)CCCOc1ncc(-c2ccc3ncc4c(c3c2)C2(CC2)C(=O)N4C)cn1 [Example 71] = < 7.00

UniProt P78527 data for CN(C)CCCOc1ncc(-c2ccc3ncc4c(c3c2)C2(CC2)C(=O)N4Cc2cn[nH]c2)cc1NS(=O)(=O)c1ccccc1 [Example 30] ; its pIC50: 7.00 to 9.00

----------
- System name: DNA-PK (Homo sapiens (Human), UniProt P78527)
- Assay comment: DNA-PK Enzyme-Linked Immunosorbent Assay (phosphorylation of GST-p53 (1-101) peptide)
- Format: biochemical
- Run parameters: ELISA, ATP 20 μM
Where a name gives a salt, the structure may show the parent alone.
Property name: IC50

• Cc1ccc(S(=O)(=O)Nc2cc(-c3ccc4ncc5c(c4c3)C3(CCC3)C(=O)N5C)cnc2N2CCC(N(C)C)CC2)cn1 [Example 185, hydrochloride] = 0.5 to 1 nM
• CCCS(=O)(=O)Nc1cc(-c2ccc3ncc4c(c3c2)C2(CCC2)C(=O)N4C)cnc1OCCCN(C)C = 1 to 100 nM
• CN1C(=O)C2(CCC2)c2c1cnc1ccc(-c3cnc(OCCCN4CCCCC4)c(NS(=O)(=O)N4CCNCC4)c3)cc21 = < 0.5 nM
• CCN1C(=O)C2(CC2)c2c1cnc1ccc(-c3cnc(OCCCN(C)C)c(NS(=O)(=O)c4ccccc4)c3)cc21 = 0.5 to 1 nM
• COc1ncc(-c2ccc3ncc4c(c3c2)C2(CC2)C(=O)N4C)cc1NS(=O)(=O)c1ccc([N+](=O)[O-])cc1 = < 0.5 nM

Input CN(C)CCCOc1ncc(-c2ccc3ncc4c(c3c2)C2(CCC2)C(=O)N4C)cc1NS(=O)(=O)C(F)(F)F . Output IC50: < 0.5 nM

Data point: CN1C(=O)C2(CCC2)c2c1cnc1ccc(-c3cnc(OCCCN4CCCCC4)c(NS(=O)(=O)N(C)C)c3)cc21 [Example 180, hydrochloride] ; IC50 = 0.5 to 1 nM

CC1CCN(S(=O)(=O)Nc2cc(-c3ccc4ncc5c(c4c3)C3(CCC3)C(=O)N5C)cnc2OCCCN(C)C)CC1 has a reported IC50 of 1 to 100 nM

Measured IC50, CN(C)CCCOc1ncc(-c2cc3c4c(cnc3cc2F)N(C)C(=O)C42CC2)cc1NS(=O)(=O)C1CC1 : 1 to 100 nM

----------
- System name: DNA-PK (Homo sapiens (Human))
- Assay comment: DNA-PK Enzyme-Linked Immunosorbent Assay (phosphorylation of GST-p53 (1-101) peptide)
- Format: biochemical
- Run parameters: ELISA, ATP 20 μM
Property name: IC50

Past entries and their recorded results:
• CN(C)CCCOc1ncc(-c2ccc3ncc4c(c3c2)CC2(CCC2)C(=O)N4C)cc1NS(=O)(=O)c1ccccc1 = 1 to 100 nM
• CN1C(=O)C2(CCC2)c2c1cnc1ccc(-c3cnc(N4CCC(N(C)C)CC4)c(NS(=O)(=O)N(C)C)c3)cc21 = < 0.5 nM
• CN1CCCN(c2ncc(-c3ccc4ncc5c(c4c3)C3(CC3)C(=O)N5C)cc2NS(=O)(=O)c2ccccc2)CC1 = 1 to 100 nM

Now, please, on to the next molecule.
Measured IC50, CCN(C)S(=O)(=O)Nc1cc(-c2ccc3ncc4c(c3c2)C2(CCC2)C(=O)N4C)cnc1N1CCC(N2CCCCC2)CC1 : 1 to 100 nM

----------
Each item that follows carries a reported pIC50.
- System name: ATM (Homo sapiens (Human))
- Sequence (Q13315 whole entry): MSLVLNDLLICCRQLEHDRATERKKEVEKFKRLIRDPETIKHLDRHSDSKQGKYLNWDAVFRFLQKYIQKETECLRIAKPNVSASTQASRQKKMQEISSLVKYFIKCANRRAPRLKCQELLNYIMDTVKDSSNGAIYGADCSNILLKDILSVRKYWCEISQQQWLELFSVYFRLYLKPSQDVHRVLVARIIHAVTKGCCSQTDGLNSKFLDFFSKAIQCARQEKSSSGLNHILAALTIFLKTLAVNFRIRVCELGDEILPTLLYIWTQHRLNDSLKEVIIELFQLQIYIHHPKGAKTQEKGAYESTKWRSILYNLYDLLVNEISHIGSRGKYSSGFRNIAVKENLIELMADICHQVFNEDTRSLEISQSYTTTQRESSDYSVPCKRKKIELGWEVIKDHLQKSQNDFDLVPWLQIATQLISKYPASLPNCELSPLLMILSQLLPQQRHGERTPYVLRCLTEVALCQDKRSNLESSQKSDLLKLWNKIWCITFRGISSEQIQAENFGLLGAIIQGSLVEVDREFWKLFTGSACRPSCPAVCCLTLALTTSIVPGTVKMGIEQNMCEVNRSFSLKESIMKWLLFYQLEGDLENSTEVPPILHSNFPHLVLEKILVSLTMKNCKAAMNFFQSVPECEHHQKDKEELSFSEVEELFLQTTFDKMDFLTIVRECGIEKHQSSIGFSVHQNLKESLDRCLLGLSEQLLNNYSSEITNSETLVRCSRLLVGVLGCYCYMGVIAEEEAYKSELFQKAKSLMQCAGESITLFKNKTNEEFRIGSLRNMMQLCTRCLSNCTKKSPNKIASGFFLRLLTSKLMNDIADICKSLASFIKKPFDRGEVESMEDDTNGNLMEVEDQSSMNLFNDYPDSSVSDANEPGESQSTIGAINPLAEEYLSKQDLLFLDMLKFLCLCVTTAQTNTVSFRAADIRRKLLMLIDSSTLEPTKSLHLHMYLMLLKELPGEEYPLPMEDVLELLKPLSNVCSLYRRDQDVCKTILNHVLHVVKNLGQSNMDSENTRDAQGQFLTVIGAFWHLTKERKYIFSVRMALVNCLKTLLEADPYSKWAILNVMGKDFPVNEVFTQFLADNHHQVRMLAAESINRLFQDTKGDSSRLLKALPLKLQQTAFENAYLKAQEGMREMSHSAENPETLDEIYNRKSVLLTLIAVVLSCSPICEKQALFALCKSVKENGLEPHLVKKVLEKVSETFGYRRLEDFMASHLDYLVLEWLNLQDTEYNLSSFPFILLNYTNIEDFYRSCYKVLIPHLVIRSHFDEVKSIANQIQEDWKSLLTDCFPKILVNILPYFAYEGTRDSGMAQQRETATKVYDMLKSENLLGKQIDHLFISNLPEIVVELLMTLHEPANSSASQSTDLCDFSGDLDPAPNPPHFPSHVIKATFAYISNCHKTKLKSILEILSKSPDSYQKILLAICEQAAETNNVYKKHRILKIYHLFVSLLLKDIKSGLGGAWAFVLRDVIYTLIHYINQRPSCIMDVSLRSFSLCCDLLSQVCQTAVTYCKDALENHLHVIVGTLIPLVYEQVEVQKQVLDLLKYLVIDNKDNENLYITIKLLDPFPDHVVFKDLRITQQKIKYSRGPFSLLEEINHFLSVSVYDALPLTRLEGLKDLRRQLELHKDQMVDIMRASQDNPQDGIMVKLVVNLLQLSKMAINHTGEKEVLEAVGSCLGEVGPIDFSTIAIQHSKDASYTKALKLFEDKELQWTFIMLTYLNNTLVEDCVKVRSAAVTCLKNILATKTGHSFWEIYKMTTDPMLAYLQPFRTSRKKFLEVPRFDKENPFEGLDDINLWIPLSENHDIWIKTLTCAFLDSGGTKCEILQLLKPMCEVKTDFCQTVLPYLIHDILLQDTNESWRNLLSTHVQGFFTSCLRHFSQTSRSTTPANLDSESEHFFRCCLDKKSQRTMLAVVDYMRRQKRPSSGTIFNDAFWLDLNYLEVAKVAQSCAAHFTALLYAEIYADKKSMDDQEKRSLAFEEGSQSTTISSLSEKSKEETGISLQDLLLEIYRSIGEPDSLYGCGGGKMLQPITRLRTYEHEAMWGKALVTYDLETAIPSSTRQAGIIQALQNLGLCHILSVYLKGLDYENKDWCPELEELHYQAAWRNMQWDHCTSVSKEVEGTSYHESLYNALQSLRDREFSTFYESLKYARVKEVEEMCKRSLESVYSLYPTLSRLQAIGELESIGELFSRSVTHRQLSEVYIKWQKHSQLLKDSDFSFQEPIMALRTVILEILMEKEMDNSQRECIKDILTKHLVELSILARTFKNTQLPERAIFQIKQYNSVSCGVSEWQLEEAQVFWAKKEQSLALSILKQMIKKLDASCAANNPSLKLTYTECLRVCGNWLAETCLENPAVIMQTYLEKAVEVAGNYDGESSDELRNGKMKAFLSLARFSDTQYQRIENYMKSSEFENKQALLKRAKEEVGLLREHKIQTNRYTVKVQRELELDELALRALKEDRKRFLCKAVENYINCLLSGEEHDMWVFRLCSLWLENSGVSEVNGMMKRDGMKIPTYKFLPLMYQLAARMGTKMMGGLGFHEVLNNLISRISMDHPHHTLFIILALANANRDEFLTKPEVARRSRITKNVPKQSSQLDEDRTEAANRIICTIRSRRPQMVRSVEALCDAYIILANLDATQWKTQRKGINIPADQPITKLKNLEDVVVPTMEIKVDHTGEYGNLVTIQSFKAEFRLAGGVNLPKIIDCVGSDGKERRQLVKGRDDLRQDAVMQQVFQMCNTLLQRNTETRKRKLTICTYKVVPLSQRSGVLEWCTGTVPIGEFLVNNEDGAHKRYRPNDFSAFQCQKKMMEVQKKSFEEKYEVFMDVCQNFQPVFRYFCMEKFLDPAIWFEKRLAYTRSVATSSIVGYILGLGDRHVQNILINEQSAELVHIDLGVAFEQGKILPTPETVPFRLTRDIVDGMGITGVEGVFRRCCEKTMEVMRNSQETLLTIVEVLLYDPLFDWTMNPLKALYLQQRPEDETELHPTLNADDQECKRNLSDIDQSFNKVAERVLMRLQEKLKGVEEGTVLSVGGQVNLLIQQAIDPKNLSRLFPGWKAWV
- Assay comment: ATM in Cell Western Assay (pKAP1 in etoposide-treated MCF-7 cells)
- Format: cell-based
- Run parameters: pKAP1 in etoposide-treated MCF-7 cells
pIC50: −log10 of the molar value.

Previously resolved entries follow.
- CC(C)NCCOc1ncc(-c2cc3c(cc2F)ncc2c3[C@]3(C[C@@H](c4cccnc4)C3)C(=O)N2C)cc1NS(C)(=O)=O [Example 437]: < 7.00
- CC(C)NCCOc1ncc(-c2cc3c4c(cnc3cc2F)N(C)C(=O)C42CN(c3ccncc3)C2)cc1NS(C)(=O)=O [Example 547]: < 7.00
- CN1C(=O)C2(CCC2)c2c1cnc1cc(F)c(-c3cnc(OCCNCC(F)F)c(NS(C)(=O)=O)c3)cc21 [Example 379]: < 7.00
- CC(C)NCCOc1ncc(-c2cc3c4c(cnc3cc2F)N(C)C(=O)C42CN([C@H](C)c3ccccc3)C2)cc1NS(C)(=O)=O [Example 494]: < 7.00
- CO[C@H]1C[C@@]2(C1)C(=O)N(C)c1cnc3cc(F)c(-c4cnc(N5CCC(N6CCCCC6)CC5)c(NS(C)(=O)=O)c4)cc3c12 [Example 392]: 7.00 to 9.00
- CCOC[C@H]1C[C@@]2(C1)C(=O)N(C)c1cnc3cc(F)c(-c4cnc(OCCNC(C)C)c(NS(C)(=O)=O)c4)cc3c12 [Example 407]: 7.00 to 9.00

Now consider a different molecule.
So for CC(C)NCCOc1ncc(-c2cc3c4c(cnc3cc2F)N(C)C(=O)C42CN(c3cncnc3)C2)cc1NS(C)(=O)=O [Example 549] , the logged pIC50 turned out to be < 7.00

----------
- System name: ATM (Homo sapiens (Human))
- Assay comment: ATM in Cell Western Assay (pKAP1 in etoposide-treated MCF-7 cells)
- Type: cell-based
- Run parameters: pKAP1 in etoposide-treated MCF-7 cells
Listing of recorded IC50 by entry.

// recorded IC50 for CC(C)NCCOc1ncc(-c2cc3c(cc2F)ncc2c3[C@]3(C[C@@H](N4CCCC4)C3)C(=O)N2C)cc1NS(C)(=O)=O : 1 to 100 nM

The molecule listed as CC(C)NCCOc1ncc(-c2cc3c(cc2F)ncc2c3[C@]3(C[C@@H](N(C)c4ccccc4)C3)C(=O)N2C)cc1NS(C)(=O)=O has a reported IC50 of > 100 nM

----------
- System name: DNA-PK (Homo sapiens (Human), UniProt P78527)
- Assay comment: DNA-PK Enzyme-Linked Immunosorbent Assay (phosphorylation of GST-p53 (1-101) peptide)
- Format: biochemical
- Run parameters: ELISA, ATP 20 μM
pIC50: −log10 of the molar value. Structures can show the parent of a compound that is named as a salt.
Reported pIC50 values are given for each entry in this list.

Example entries begin here.
• CN(C)CCCOc1ncc(-c2ccc3ncc4c(c3c2)C2(CCC2)C(=O)N4C)cc1NS(=O)(=O)c1ccc(O)cc1 [Example 220, hydrochloride] = > 9.30
• COC1CN(S(=O)(=O)Nc2cc(-c3cc4c5c(cnc4cc3F)N(C)C(=O)C53CCC3)cnc2N2CC(N(C)C)C2)C1 [Example 311, formate] = 7.00 to 9.00
• CN1C(=O)C2(CCC2)c2c1cnc1ccc(-c3cnc(OCCCN4CCCC4)c(NS(=O)(=O)c4ccccc4)c3)cc21 [Example 232] = 9.00 to 9.30
• Cc1ccc(S(=O)(=O)Nc2cc(-c3ccc4ncc5c(c4c3)C3(CC3)C(=O)N5C)cnc2N2CCC(N3CCCCC3)CC2)cn1 [Example 218] = > 9.30
• CN1C(=O)C2(CCC2)c2c1cnc1ccc(-c3cnc(OCCCN4CCCC(O)C4)c(NS(C)(=O)=O)c3)cc21 (centres unmarked) [Example 270] = 7.00 to 9.00

Short answer for CN1CCN(c2ncc(-c3ccc4ncc5c(c4c3)C3(CC3)C(=O)N5C)cc2NS(=O)(=O)c2ccccc2)CC1 [Example 49] : pIC50 was > 9.30

Query COc1ncc(-c2ccc3ncc4c(c3c2)C2(CC2)C(=O)N4C)cc1NS(=O)(=O)c1cccc(C(C)=O)c1 [Example 13] yields pIC50 of > 9.30

Memo: CC1CCCN(S(=O)(=O)Nc2cc(-c3ccc4ncc5c(c4c3)C3(CCC3)C(=O)N5C)cnc2OCCCN(C)C)C1 (centres unmarked) [Example 175] , reported pIC50: 7.00 to 9.00

So for CN1C(=O)C2(CCC2)c2c1cnc1ccc(-c3cnc(OCCCN4CCCCC4)c(NS(=O)(=O)c4cscn4)c3)cc21 [Example 193, hydrochloride] , the logged pIC50 turned out to be 9.00 to 9.30

// field: pIC50; key: CN(C)CCCOc1ncc(-c2ccc3ncc4c(c3c2)C2(CC2)C(=O)N4C)cc1NS(=O)(=O)C1CC1 [Example 29] ; value = 7.00 to 9.00

Noted for CN1C(=O)C2(CC2)c2c1cnc1ccc(-c3cnc4ncccc4c3)cc21 [Example 62] : its pIC50 reads 7.00 to 9.00

The value of pIC50 measured for the compound CN1CCN(c2ncc(-c3cc4c5c(cnc4cc3F)N(C)C(=O)C53CC3)cc2NS(=O)(=O)c2ccccc2)CC1 [Example 117, hydrochloride] turned out to be 7.00 to 9.00

// field: pIC50; key: COc1ccc(S(=O)(=O)Nc2cc(-c3ccc4ncc5c(c4c3)C3(CCC3)C(=O)N5C)cnc2OCCCN(C)C)cc1 [Example 144, hydrochloride] ; value = 7.00 to 9.00

// recorded pIC50 for Cc1ccc(S(=O)(=O)Nc2cc(-c3ccc4ncc5c(c4c3)C3(CC3)C(=O)N5C)cnc2OCCCN(C)C)cc1 [Example 100] : > 9.30
